Data provenance is ChEMBL document CHEMBL1138666.

Molecular target: Delta-type opioid receptor (Mus musculus)
Sequence (P32300 whole entry): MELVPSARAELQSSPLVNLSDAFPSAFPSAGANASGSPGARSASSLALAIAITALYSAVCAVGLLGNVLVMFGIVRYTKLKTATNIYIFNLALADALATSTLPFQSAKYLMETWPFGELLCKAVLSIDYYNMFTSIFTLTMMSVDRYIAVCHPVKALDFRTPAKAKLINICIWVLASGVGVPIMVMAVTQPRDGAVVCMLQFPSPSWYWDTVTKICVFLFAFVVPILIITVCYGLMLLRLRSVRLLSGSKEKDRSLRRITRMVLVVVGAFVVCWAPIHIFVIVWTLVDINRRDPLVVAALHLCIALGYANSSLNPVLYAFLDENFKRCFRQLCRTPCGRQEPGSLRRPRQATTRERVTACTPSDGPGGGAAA
Test: Antagonist activity against deltorphin in mouse vas deferens assay
Assay type: functional, tissue-based
Conditions: read-out: pA2 (converted)
Square brackets hold non-standard residues; d marks the D form. Peptide text beside a SMILES is read from it. Dmt = Cc1cc(O)cc(C)c1C[C@H](N)C(=O)O; Tic = O=C(O)[C@@H]1Cc2ccccc2CN1
Entries and their Kb
Use nM as the unit, but write only the number.

COMPOUND: CC(=O)NCCCC[C@H](NC(=O)[C@@H]1Cc2ccccc2CN1C(=O)[C@@H](N)Cc1c(C)cc(O)cc1C)C(=O)O
RESULT VALUE: 0.0851
--
COMPOUND: Cc1cc(O)cc(C)c1C[C@H](N)C(=O)N1Cc2ccccc2C[C@H]1C(=O)NC(C)C(N)=O (stereo in doubt)
RESULT VALUE: 25.1
--
COMPOUND: Cc1cc(O)cc(C)c1C[C@H](N)C(=O)N1Cc2ccccc2C[C@H]1C(=O)N[C@@H](CC(N)=O)C(=O)O
RESULT VALUE: 5.89
--
COMPOUND: Cc1cc(O)cc(C)c1C[C@H](N)C(=O)N1Cc2ccccc2C[C@H]1C(=O)NC(Cc1c[nH]cn1)C(=O)O (single isomer, unassigned)
RESULT VALUE: 1.91
--
COMPOUND: Cc1cc(O)cc(C)c1C[C@H](N)C(=O)N1Cc2ccccc2C[C@H]1C(=O)N[C@H](CC(=O)O)C(N)=O
RESULT VALUE: 7.24
--
COMPOUND: Cc1cc(O)cc(C)c1C[C@H](N)C(=O)N1Cc2ccccc2C[C@H]1C(=O)N[C@H](CCC(N)=O)C(=O)O
RESULT VALUE: 1.23
--
COMPOUND: Cc1cc(O)cc(C)c1C[C@H](N)C(=O)N1Cc2ccccc2C[C@H]1C(=O)NCC(N)=O (H-[Dmt]-[Tic]-Gly-NH2)
RESULT VALUE: 22.4
--
COMPOUND: Cc1cc(O)cc(C)c1C[C@H](N)C(=O)N1Cc2ccccc2C[C@H]1C(=O)NC(CO)C(N)=O (single isomer, unassigned)
RESULT VALUE: 8.51
--
COMPOUND: Cc1cc(O)cc(C)c1C[C@H](N)C(=O)N1Cc2ccccc2C[C@H]1C(=O)N[C@H](CC(N)=O)C(=O)O
RESULT VALUE: 5.89
--
COMPOUND: Cc1cc(O)cc(C)c1C[C@H](N)C(=O)N1Cc2ccccc2C[C@H]1C(=O)N[C@@H](CC(=O)O)C(N)=O
RESULT VALUE: 7.59

Task item: // output Kb; input Cc1cc(O)cc(C)c1C[C@H](N)C(=O)N1Cc2ccccc2C[C@H]1C(=O)N[C@@H](Cc1c[nH]c2ccccc12)C(=O)O (H-[Dmt]-[Tic]-Trp-OH) ; system Delta-type opioid receptor (Mus musculus)
Reply: 0.269

Task item: // output Kb; input CC(=O)NCCCC[C@@H](NC(=O)[C@@H]1Cc2ccccc2CN1C(=O)[C@@H](N)Cc1c(C)cc(O)cc1C)C(=O)O ; system Delta-type opioid receptor (Mus musculus)
Reply: 0.513

Task item: // output Kb; input Cc1cc(O)cc(C)c1C[C@H](N)C(=O)N1Cc2ccccc2C[C@H]1C(=O)NC(CO)C(=O)O (single isomer, unassigned) ; system Delta-type opioid receptor (Mus musculus)
Reply: 1.32
